The measured values listed here are drawn from the METLIN SMRT retention time set (Domingo-Almenara et al. 2019).

# assay summary: gradient 5% acetonitrile 3 min, to 50% in 2 min, to 85% in 15 min, held 3 min, 100 µL/min
# measurement conditions: column: Zorbax Extend-C18 2.1 x 50 mm; eluents: water / acetonitrile, 0.1% formic acid
measure name: RP-LC retention time (s)

Tell me the measured RP-LC retention time of `Cc1ccc(NC(=O)C2CCN(S(=O)(=O)c3cn(C)cn3)CC2)c(C)c1` , please.
706

Query: RP-LC retention time; subject: `COc1ccc(-c2nc(N3CCOCC3)c3sc(CN(C)c4ncc(C(=O)NO)cn4)cc3n2)cn1`
674

Need RP-LC retention time of `CCOC(=O)N1CCN(C(=O)CSc2nnc(COc3ccc(Cl)cc3)o2)CC1` , thanks.
799

Quick check: RP-LC retention time of `Cc1cc(C)c(-c2csc(Nc3ccccn3)n2)cc1C` ?
1030

GET /values?readout=RP-LC retention time&item= `CC(C)n1cc(S(=O)(=O)Nc2ccc(F)cc2)c2cccnc21`
869

Would you mind telling me what RP-LC retention time value was observed for `CCS(=O)(=O)N1CCCc2cc(C(=O)Nc3cccc(Br)c3)ccc21` ?
1040

Query (compound): Cc1noc(C)c1CC(=O)N1CCCn2ccnc2C1C(C)C (centres undefined) ; field requested: RP-LC retention time
632

Could you tell me which RP-LC retention time is on file for `CCC(=O)N1CCc2cc(-c3ccc(C(=O)N4CCN(c5ccccn5)CC4)cc3)ccc21` ?
653

I have this compound here, COc1ccc(N2CC(c3noc(-c4ccc5c(c4)OCO5)n3)CC2=O)cc1 (centres undefined) , and I need its recorded RP-LC retention time.
874

* * *

# assay summary: gradient 5% acetonitrile 3 min, to 50% in 2 min, to 85% in 15 min, held 3 min, 100 µL/min
# measurement conditions: column: Zorbax Extend-C18 2.1 x 50 mm; eluents: water / acetonitrile, 0.1% formic acid
measure name: RP-LC retention time (s)

Answered cases to consult:
Dear colleague, I am looking for the recorded RP-LC retention time of the following compound: CCCN(CC1CCOC1)C(=O)Nc1ccc(Cl)cc1F (stereo not given)
853

Fill in: RP-LC retention time of `Cc1cc2cc(CN3C(=O)c4ccccc4C3=O)ccc2[nH]1` is ___
866

(A) Cn1cc(-c2cc3n(n2)CCC(=O)N3CC(=O)NCCC2=CCCCC2)c2ccccc21
(B) CC1(c2noc(C3CCOCC3)n2)CCN(Cc2c(F)cccc2Cl)CC1
Looking only at measured RP-LC retention time, which entry is lower, A or B ? Kindly give the label for the entry you pick.
B
(B: 612 s, A: 891 s)

* * *

# assay summary: gradient 5% acetonitrile 3 min, to 50% in 2 min, to 85% in 15 min, held 3 min, 100 µL/min
# measurement conditions: column: Zorbax Extend-C18 2.1 x 50 mm; eluents: water / acetonitrile, 0.1% formic acid
measure name: RP-LC retention time (s)

Example entries and their recorded answers appear below.
Please report the recorded RP-LC retention time for `COCc1nnc([C@@H]2CC(F)(F)CN2Cc2ccc(OC)cc2)o1` .
837

Recorded RP-LC retention time of `CC(C)CN1N=C(C(=O)N2CCOCC2)S(=O)(=O)c2ccc(Cl)cc21` , please.
813

Report RP-LC retention time for `Cc1cc(C)n(-c2ccnc(NCc3ccc(Cl)cc3)n2)n1` please.
928

Field request: RP-LC retention time | item: CN1C(=O)c2cc(C(=O)NCc3ccccc3F)nn2CC1(C)C(=O)NC1CCCCCC1 (stereo not drawn)
839

Name the reported RP-LC retention time value associated with the compound `CC1=NS(=O)(=O)N(Cc2ccccc2)C=C1C(=O)OCc1noc(-c2ccc(C)c(C)c2)n1`
1220

Look up RP-LC retention time for this compound: `Cc1noc(C)c1-c1ccc(S(=O)(=O)N2CC=C(c3ccccc3)CC2)cc1`
1110

If you can, please state the reported RP-LC retention time value of CNC(=O)C1CCCN(c2nc3ncn(CC(=O)NCc4cccc(OC)c4)c(=O)c3s2)C1 (stereo not drawn) .
621

Could you tell me which RP-LC retention time is on file for `Cc1ccc(OCC(=O)Nc2nnc(SCc3nnc(-c4ccccc4C)o3)s2)c(C)c1` ?
1100

Quick one: RP-LC retention time for `COC(=O)C1=CN(CC(=O)N2CCN(c3ccccc3)CC2)S(=O)(=O)N=C1C` ?
871

// returns reported RP-LC retention time for input CC(=O)N1CCc2cc(N3CC(C(=O)Nc4ccc(C)cc4Cl)CC3=O)ccc21 (stereo not drawn)
735

(P) Cc1ccc(NC(=O)N2CCN(C(=O)N3C[C@H]4C[C@H](C3)[C@H]3CCCC(=O)N3C4)CC2)cc1C
(Q) CC(C)c1csc(-c2csc(S(=O)(=O)NCc3ccc(Br)cc3)c2)n1
Compare RP-LC retention time: is it lower for P or for Q ? Lab note: record the label of whichever item you select.
P

(1) O=C(c1ccsc1)N1CCC2(CC1)CC(N1CCOCC1)CCO2 (stereo not drawn)
(2) Cc1cc(C)cc(NC(=O)COc2cccc3c(=O)n(C)ccc23)c1
(3) CC1CCN(c2nc3c(c(=O)n(C)c(=O)n3C)n2Cc2ccc(Br)cc2)CC1
Order the items by recorded RP-LC retention time; the first position goes to the largest value. Give me the labels in the order the question wants.
3, 2, 1
(3: 1250 s, 2: 844 s, 1: 557 s)

(A) COc1cc(NC(=O)Cn2ccc3ccc(-c4nnc(C)o4)cc32)cc(OC)c1OC
(B) C=CCN1C(=O)COc2ccc(-c3nc(NC(=O)c4ccc(Cl)cc4)sc3C)cc21
Would you mind telling me which has the lower recorded RP-LC retention time between A and B ? Field: selected label. Fill in the label of the entry you choose.
A
